The following binders are listed with their measured pEC50 values.
target: T1, human GPC3 on stably transfected SK-HEP-1 cells (human, UniProt P51654 25-554); test: MSD-based (ECL) cell binding assay on transfected SK-HEP-1 cells
T1 construct: whole, on cells; also called SK-HEP-1::human GPC3
T1 sequence (P51654 25-554 limits assumed): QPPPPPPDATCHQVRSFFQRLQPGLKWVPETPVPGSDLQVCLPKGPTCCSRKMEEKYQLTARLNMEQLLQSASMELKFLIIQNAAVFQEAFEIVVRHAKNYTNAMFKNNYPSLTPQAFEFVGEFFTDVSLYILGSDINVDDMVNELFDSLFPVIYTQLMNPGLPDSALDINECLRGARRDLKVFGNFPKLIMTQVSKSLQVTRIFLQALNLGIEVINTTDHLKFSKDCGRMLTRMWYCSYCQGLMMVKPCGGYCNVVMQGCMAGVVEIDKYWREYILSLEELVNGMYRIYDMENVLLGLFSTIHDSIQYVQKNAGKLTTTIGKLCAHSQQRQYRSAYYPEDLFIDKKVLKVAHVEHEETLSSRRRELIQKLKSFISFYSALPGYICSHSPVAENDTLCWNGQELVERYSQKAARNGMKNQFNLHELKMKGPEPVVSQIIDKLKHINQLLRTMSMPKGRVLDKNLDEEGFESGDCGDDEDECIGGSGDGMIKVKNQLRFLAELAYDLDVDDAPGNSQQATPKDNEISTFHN
pEC50 here: minus log base 10 of the concentration, concentration in moles per litre.

- Binder: "lipocalin mutein of SEQ ID NO: 13 (designed binder, hNGAL (Lcn2) mutein; also called optimized GPC3 specific lipocalin mutein) QDSTSDLIPAPPLSKVPLQQNFQDNQFQGKWYVVGRAGNLGLREDKDPPKMWATIYELKEDKSYDVTNVRFARKKCMYSIGTFVPGSQPGEFTLGQIKSEPGSTANLVRVVSTNYNQHAMVFFKEVYQNREIFFITLYGRTKELTSELKENFIRFSKSLGLPENHIVFPVPIDQCIDGSAWSHPQFEK"
  pEC50: 9.05
- Binder: "lipocalin mutein of SEQ ID NO: 8 (designed binder, hNGAL (Lcn2) mutein; also called optimized GPC3 specific lipocalin mutein) QDSTSDLIPAPPLSKVPLQQNFQDNQFQGKWYVVGRAGNVGLREDKDPPKMWATIYELKEDKSYDVTNVRFARKKCLYSIGTFVPGSQPGEFTLGQIKSEPGNTANLVRVVSTNYNQHAMVFFKEVYQNREIFFIILYGRTKELTSELKENFIRFSKSLGLPENHIVFPVPIDQCIDGSAWSHPQFEK"
  pEC50: 8.85

--- query ---
Value of pEC50 reported for the binder lipocalin mutein of SEQ ID NO: 12 (designed binder, hNGAL (Lcn2) mutein; also called optimized GPC3 specific lipocalin mutein) QDSTSDLIPAPPLSKVPLQQNFQDNQFQGKWYVVGRAGNVALREDKDPPKMRATIYELKEDKSYDVTNVVFAGKKCKYSIGTFVPGSQPGEFTLGRIKSPPGNTANLVRVVSTNYNQHAMVFFKEVYQNREIFFIILYGRTKELTSELKENFIRFSKSLGLPENHIVFPVPIDQCIDGSAWSHPQFEK is 8.70
